Molecular target: PI3K-gamma (Homo sapiens)
Assay: PI3K-gamma fluorescence polarization assay
Format: biochemical
Conditions: read-out: PI3Kγ Avg. IC50
pIC50: −log10 of the molar value.
Items are presented alongside their recorded pIC50.

CHEMICAL_STRUCTURE: COc1ccc2c(c1)c(/C=C1\Oc3ccc(NC(=O)Nc4cccnc4)cc3C1=O)c(C)n2CCN1CCN(C)CC1
TESTED_TARGET: PI3K-gamma (Homo sapiens)
pIC50: 6.61
//
CHEMICAL_STRUCTURE: CNC(=O)Nc1ccc2c(c1)C(=O)/C(=C/c1c(-c3nc(C(C)C)no3)n(CCN3CCN(C)CC3)c3ccc(OC)cc13)O2
TESTED_TARGET: PI3K-gamma (Homo sapiens)
pIC50: 6.45

----------
Biological target: PI3K-gamma (Homo sapiens, UniProt P48736)
Sequence (P48736 whole entry, species assumed): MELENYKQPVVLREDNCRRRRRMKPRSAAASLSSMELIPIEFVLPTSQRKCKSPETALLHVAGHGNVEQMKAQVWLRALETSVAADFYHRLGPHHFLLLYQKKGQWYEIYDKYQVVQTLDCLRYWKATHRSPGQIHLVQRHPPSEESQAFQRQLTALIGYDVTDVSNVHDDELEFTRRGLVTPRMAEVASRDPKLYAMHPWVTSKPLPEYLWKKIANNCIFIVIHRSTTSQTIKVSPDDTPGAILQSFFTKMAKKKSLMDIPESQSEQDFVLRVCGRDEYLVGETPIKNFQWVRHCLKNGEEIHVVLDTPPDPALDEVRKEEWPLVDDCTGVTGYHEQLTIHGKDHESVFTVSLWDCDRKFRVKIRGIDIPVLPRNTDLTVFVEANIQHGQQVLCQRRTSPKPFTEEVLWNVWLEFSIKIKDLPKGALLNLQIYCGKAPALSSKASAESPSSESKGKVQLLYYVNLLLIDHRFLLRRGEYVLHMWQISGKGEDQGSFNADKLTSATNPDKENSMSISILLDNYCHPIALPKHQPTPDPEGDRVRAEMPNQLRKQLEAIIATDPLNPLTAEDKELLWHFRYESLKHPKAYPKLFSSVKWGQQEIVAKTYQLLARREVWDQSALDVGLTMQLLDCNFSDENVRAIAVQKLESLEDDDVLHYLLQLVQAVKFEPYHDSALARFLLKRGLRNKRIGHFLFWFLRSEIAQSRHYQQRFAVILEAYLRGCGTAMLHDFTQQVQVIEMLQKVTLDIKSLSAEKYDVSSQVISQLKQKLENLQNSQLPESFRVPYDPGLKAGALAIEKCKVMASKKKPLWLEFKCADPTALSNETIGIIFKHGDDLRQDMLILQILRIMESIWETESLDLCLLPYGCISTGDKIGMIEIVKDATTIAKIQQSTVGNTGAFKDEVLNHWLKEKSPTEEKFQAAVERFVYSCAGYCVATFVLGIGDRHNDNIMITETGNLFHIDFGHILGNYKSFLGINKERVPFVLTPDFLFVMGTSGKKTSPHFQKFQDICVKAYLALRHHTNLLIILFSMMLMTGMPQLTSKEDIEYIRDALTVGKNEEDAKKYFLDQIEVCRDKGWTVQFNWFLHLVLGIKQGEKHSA
Assay: PI3K-gamma fluorescence polarization assay
Assay type: biochemical
Conditions: PI3Kγ Avg. IC50
pIC50: −log10 of the molar value.
Lab note: compare pIC50 against 6. Equal or greater, write 1. Smaller, write -1.

CHEMICAL_STRUCTURE: COc1ccc2c(c1)c(/C=C1\Oc3ccc(NC(=O)Nc4ccc(C(=O)N(C)CCN(C)C)cc4)cc3C1=O)c(C)n2CCN1CCN(C)CC1
DISCRETE_LABEL: 1
//
CHEMICAL_STRUCTURE: O=C1C(=Cc2c(-c3ccccc3)[nH]c3ccccc23)Oc2cc(O)cc(O)c21
DISCRETE_LABEL: -1
//
CHEMICAL_STRUCTURE: COc1ccc2c(c1)c(/C=C1\Oc3ccc(NC(N)=O)cc3C1=O)cn2CCN1CCN(C)CC1
DISCRETE_LABEL: -1
//
CHEMICAL_STRUCTURE: Cn1c(-c2ccc(Cl)cc2)c(C=C2Oc3cc(O)cc(O)c3C2=O)c2ccccc21
DISCRETE_LABEL: -1
//
CHEMICAL_STRUCTURE: CNC(=O)Nc1ccc2c(c1)C(=O)/C(=C/c1c[nH]c3c(CCCN4CCN(C)CC4)cc(OC)cc13)O2
DISCRETE_LABEL: -1

----------
Biological target: human TOR (Homo sapiens, UniProt P42345)
Construct: FLAG
Test: mTOR enzyme assay (DELFIA, His6-S6K substrate)
Type: biochemical
Settings: read-out: mTOR Kinase Avg. IC50
Items are presented alongside their recorded IC50.

CHEMICAL_STRUCTURE: CCn1c(C)c(/C=C2\Oc3ccc(NC(=O)Nc4ccc(C(=O)N5CCN(C)CC5)cc4)cc3C2=O)c2cc(OC)ccc21
UNIT_OF_MEASURE: µM
CENSOR_SYMBOL: =
IC50: 0.24
//
CHEMICAL_STRUCTURE: Cn1cc(/C=C2\Oc3cc(O)cc(O)c3C2=O)c2c(-c3ccc(NCCN4CCOCC4)nc3)cccc21
UNIT_OF_MEASURE: µM
CENSOR_SYMBOL: =
IC50: 0.355
//
CHEMICAL_STRUCTURE: COc1ccc2[nH]c(-c3c(C)nn(C)c3C)c(/C=C3\Oc4ccc(NC(=O)Nc5ccc(C(=O)NCCN(C)C)cc5)cc4C3=O)c2c1
UNIT_OF_MEASURE: µM
CENSOR_SYMBOL: <
IC50: 0.001
//
CHEMICAL_STRUCTURE: O=C1C(=Cc2c[nH]c3cc(Cl)ccc23)Oc2cc(O)cc(O)c21
UNIT_OF_MEASURE: µM
CENSOR_SYMBOL: =
IC50: 19
//
CHEMICAL_STRUCTURE: COc1ccc2[nH]c(-c3c(C)nn(C)c3C)c(/C=C3\Oc4ccc(NC(=O)Nc5ccc(C(=O)N6CCN(C(C)C)CC6)cc5)cc4C3=O)c2c1
UNIT_OF_MEASURE: µM
CENSOR_SYMBOL: =
IC50: 0.002
//
CHEMICAL_STRUCTURE: COc1ccc2c(c1)c(/C=C1\Oc3cc(O)ccc3C1=O)c(C)n2CCCN1CCC(C)CC1
UNIT_OF_MEASURE: µM
CENSOR_SYMBOL: =
IC50: 6.5
//
CHEMICAL_STRUCTURE: COc1ccc2c(c1)c(/C=C1\Oc3cc(O)ccc3C1=O)c(C1CC1)n2CCn1cccn1
UNIT_OF_MEASURE: µM
CENSOR_SYMBOL: =
IC50: 0.013
//
CHEMICAL_STRUCTURE: O=C1C(=Cc2c[nH]c3ccc(OCc4ccccc4)cc23)Oc2cc(O)cc(O)c21
UNIT_OF_MEASURE: µM
CENSOR_SYMBOL: >
IC50: 5
//
CHEMICAL_STRUCTURE: O=C1C(=Cc2c[nH]c3c(Cl)cccc23)Oc2cc(O)cc(O)c21
UNIT_OF_MEASURE: µM
CENSOR_SYMBOL: =
IC50: 17
//
CHEMICAL_STRUCTURE: O=C1C(=Cc2c[nH]c3ccc(Br)cc23)Oc2cccc(O)c21
UNIT_OF_MEASURE: µM
CENSOR_SYMBOL: =
IC50: 17.5
//
CHEMICAL_STRUCTURE: COc1ccc2c(c1)c(/C=C1\Oc3cc(O)cc(C)c3C1=O)c(C1CC1)n2CCN1CCN(C)CC1
UNIT_OF_MEASURE: µM
CENSOR_SYMBOL: =
IC50: 0.0375
//
CHEMICAL_STRUCTURE: CN(C)CCn1cc(C=C2Oc3cc(O)cc(O)c3C2=O)c2c(C#N)cccc21
UNIT_OF_MEASURE: µM
CENSOR_SYMBOL: =
IC50: 1.3
//
CHEMICAL_STRUCTURE: CCn1c(C2CCCCC2)c(/C=C2\Oc3ccc(NC(=O)Nc4ccc(C(=O)N5CCN(C)CC5)cc4)cc3C2=O)c2cc(OC)ccc21
UNIT_OF_MEASURE: µM
CENSOR_SYMBOL: =
IC50: 0.185
//
CHEMICAL_STRUCTURE: COc1ccc2c(C=C3Oc4cc(O)cc(O)c4C3=O)c[nH]c2c1
UNIT_OF_MEASURE: µM
CENSOR_SYMBOL: =
IC50: 16
//
CHEMICAL_STRUCTURE: CNC(=O)Nc1ccc2c(c1)C(=O)/C(=C/c1c(-c3c(OC)cccc3OC)[nH]c3ccc(OC)cc13)O2
UNIT_OF_MEASURE: µM
CENSOR_SYMBOL: =
IC50: 0.035

----------
Items are presented alongside their recorded IC50.
Target: PI3K-gamma (Homo sapiens)
Assay: PI3K-gamma fluorescence polarization assay
Format: biochemical
Conditions: PI3Kγ Avg. IC50

MOLECULE: COc1ccc2c(c1)c(/C=C1\Oc3ccc(NC(=O)Nc4cccnc4)cc3C1=O)c(C1CCCC1)n2CCN1CCN(C)CC1 [Compound 638]
UNIT_OF_MEASURE: nM
IC50: 214
--
MOLECULE: COc1cc2[nH]cc(C=C3Oc4cc(O)cc(O)c4C3=O)c2cc1OC [Example 181]
UNIT_OF_MEASURE: nM
IC50: 1750
--
MOLECULE: CN1CCN(CCn2c(-c3ccccc3)c(C=C3Oc4cc(O)cc(O)c4C3=O)c3ccccc32)CC1 [Example 159]
UNIT_OF_MEASURE: nM
IC50: 5120
--
MOLECULE: COC(=O)c1ccc2[nH]cc(C=C3Oc4cc(O)cc(O)c4C3=O)c2c1 [Example 166]
UNIT_OF_MEASURE: nM
IC50: 180

----------
Target: UniProtKB P48736
Test: PI3K-gamma fluorescence polarization assay
Assay type: biochemical
Settings: PI3Kγ Avg. IC50
pIC50: −log10 of the molar value.
Lab note: compare pIC50 against 7. Equal or greater, write T. Smaller, write F.

CHEMICAL_STRUCTURE: COc1ccc2c(c1)c(/C=C1\Oc3cc(O)ccc3C1=O)c(C)n2CCCN(C)C
DISCRETE_LABEL: F

CHEMICAL_STRUCTURE: CNC(=S)Nc1ccc2c(c1)C(=O)/C(=C/c1c(C)n(CCN3CCN(C)CC3)c3ccc(OC)cc13)O2
DISCRETE_LABEL: F

CHEMICAL_STRUCTURE: O=C1/C(=C/c2c(-c3ccc(F)cc3)[nH]c3ccccc23)Sc2ccccc21
DISCRETE_LABEL: F

CHEMICAL_STRUCTURE: COc1ccc2c(c1)c(/C=C1\Oc3cc(O)ccc3C1=O)c(C1CCCC1)n2CCN1CCN(C)CC1
DISCRETE_LABEL: F

CHEMICAL_STRUCTURE: COc1ccc2c(c1)c(C=C1Oc3cc(O)cc(O)c3C1=O)cn2CCN1CCN(CCO)CC1
DISCRETE_LABEL: F

CHEMICAL_STRUCTURE: CCn1c(C)c(/C=C2\Oc3ccc(NC(=O)Nc4ccc(NCCN(C)C)cc4)cc3C2=O)c2cc(OC)ccc21
DISCRETE_LABEL: T

----------
Target: PI3K-gamma (Homo sapiens, UniProt P48736)
Assay: PI3K-gamma fluorescence polarization assay
Assay type: biochemical
Settings: PI3Kγ Avg. IC50
Items are presented alongside their recorded IC50.
ATTRIBUTE_MEASURED: IC50

CHEMICAL_STRUCTURE: COc1ccc2c(c1)c(/C=C1\Oc3cc(O)cc(O)c3C1=O)cn2CCN1CCC(O)CC1
RESULT: 117 nM
--
CHEMICAL_STRUCTURE: COc1ccc2c(c1)c(/C=C1\Oc3cc(O)cc(Cl)c3C1=O)c(C)n2CCCN(C)C
RESULT: 1270 nM
--
CHEMICAL_STRUCTURE: COc1ccc2[nH]c(C)c(C=C3Oc4c(ccc(O)c4O)C3=O)c2c1
RESULT: 3500 nM
--
CHEMICAL_STRUCTURE: CNC(=O)Nc1ccc2c(c1)C(=O)/C(=C/c1c(-c3c(C)nn(CCN(C)C)c3C)[nH]c3ccc(OC)cc13)O2
RESULT: 25.5 nM
